Test system: NCI-H23
Experiment: In vitro cytotoxicity was evaluated against lung NCI-H23 cells; 1 x 10E1
Assay type: functional, cell-based
Details: Homo sapiens, read-out: IC50
PROPERTY LABEL: IC50 (nM)

> print(dat)
                               smiles.input  property.label  measurement
1  Nc1ccn([C@@H]2O[C@H](CO)[C@@H](O)[C@@H]2O)c(=O)n1            IC50         1000
